The entries below come with measured EC50 values attached.
- System under test: CFTR (Homo sapiens, UniProt P13569, DEL508-508)
- Construct: endogenous in cells; host or cells: primary human bronchial epithelial cells from CF subjects (F508del/MF-HBE), differentiated at air-liquid interface
- Sequence (P13569 with tags, fused parts or gaps DEL508-508): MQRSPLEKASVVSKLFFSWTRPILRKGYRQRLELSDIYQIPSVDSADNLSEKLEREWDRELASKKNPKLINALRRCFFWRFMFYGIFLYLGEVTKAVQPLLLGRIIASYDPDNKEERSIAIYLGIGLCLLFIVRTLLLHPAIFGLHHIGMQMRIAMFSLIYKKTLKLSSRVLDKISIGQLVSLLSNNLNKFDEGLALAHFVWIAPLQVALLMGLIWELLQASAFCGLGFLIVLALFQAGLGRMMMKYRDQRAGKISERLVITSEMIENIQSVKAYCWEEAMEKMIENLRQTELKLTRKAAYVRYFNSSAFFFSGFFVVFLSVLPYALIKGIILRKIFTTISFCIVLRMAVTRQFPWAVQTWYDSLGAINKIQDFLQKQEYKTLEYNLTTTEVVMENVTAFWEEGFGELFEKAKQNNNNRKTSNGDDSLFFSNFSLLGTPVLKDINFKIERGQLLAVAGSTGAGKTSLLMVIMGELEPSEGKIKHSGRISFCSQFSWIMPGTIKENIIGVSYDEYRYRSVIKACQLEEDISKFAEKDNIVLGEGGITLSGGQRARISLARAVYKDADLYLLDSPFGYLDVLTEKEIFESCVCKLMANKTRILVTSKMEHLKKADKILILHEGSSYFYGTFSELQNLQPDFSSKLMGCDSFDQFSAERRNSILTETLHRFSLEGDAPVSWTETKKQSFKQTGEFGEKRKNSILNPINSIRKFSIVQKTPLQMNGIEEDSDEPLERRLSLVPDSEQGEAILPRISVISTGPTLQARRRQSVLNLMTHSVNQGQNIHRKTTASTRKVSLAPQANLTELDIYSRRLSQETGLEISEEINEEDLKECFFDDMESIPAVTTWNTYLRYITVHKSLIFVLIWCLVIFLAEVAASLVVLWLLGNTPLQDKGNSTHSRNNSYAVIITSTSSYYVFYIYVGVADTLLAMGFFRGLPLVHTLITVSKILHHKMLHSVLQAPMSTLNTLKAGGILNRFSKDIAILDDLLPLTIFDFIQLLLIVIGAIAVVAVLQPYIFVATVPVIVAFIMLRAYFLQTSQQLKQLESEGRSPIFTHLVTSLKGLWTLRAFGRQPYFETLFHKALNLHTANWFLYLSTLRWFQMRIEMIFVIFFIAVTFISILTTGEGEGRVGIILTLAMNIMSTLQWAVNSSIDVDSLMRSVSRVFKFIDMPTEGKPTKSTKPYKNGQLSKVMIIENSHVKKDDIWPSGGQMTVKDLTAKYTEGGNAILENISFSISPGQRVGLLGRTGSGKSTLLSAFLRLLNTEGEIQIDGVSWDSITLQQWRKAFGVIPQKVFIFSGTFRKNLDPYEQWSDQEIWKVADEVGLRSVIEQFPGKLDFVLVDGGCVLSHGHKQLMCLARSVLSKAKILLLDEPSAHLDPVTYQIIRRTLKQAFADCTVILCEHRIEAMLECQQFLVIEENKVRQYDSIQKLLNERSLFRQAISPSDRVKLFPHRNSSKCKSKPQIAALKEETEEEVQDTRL
- Method notes: HBE assay: Ussing chamber assay of CFTR-mediated short-circuit currents
- Type: cell-based
- Test conditions: HBE assay; read-out: HBE EC50

Here's what some known entries look like.
# Molecule, EC50
data = [
    ("Cc1cccc(C)c1-c1cc2nc(n1)NS(=O)(=O)c1cccc(c1)C(=O)N(Cc1ncc(OCC3CC3)cn1)[C@H](CC(C)(C)C)CO2", "< 1000 nM"),
    ("COCCN(CC(C)C)c1cccc(CN2C(=O)c3cccc(c3)S(=O)(=O)Nc3nc(cc(-c4c(C)cccc4C)n3)OC[C@H]2CC(C)(C)C)n1", "< 1000 nM"),
    ("Cc1cccc(C)c1-c1cc2nc(n1)NS(=O)(=O)c1cccc(c1)C(=O)N(Cc1ncc(N3CCC(C)(C)C3)cn1)[C@H](CC1CCC1)CO2", "< 1000 nM"),
    ("Cc1cccc(C)c1-c1cc2nc(n1)NS(=O)(=O)c1cccc(c1)C(=O)N(Cc1cccc(N3CCC[C@@H]3CC(C)C)n1)[C@H](CC(C)(C)C)CO2 (stereo in doubt) [Compound 1429]", "< 1000 nM"),
    ("CCOc1cnc(CN2C(=O)c3cccc(c3)S(=O)(=O)Nc3nc(cc(-c4c(C)cccc4C)n3)OC[C@H]2CC2(C(F)(F)F)CC2)nc1", "< 1000 nM"),
]

Continue with the molecule presented below.
Q. Please look up its EC50: Cc1cccc(C)c1-c1cc2nc(n1)NS(=O)(=O)c1cccc(c1)C(=O)N(Cc1ncc(OCC(F)(F)F)cn1)[C@H](CC(C)(C)C)CO2
A. < 1000 nM

These data points were gathered from patent US20240150377A1.
